Test system: various Staphylococcus aureus strains
Experiment: Disc diffusion, Staphylococcus aureus strain study
Assay type: cell-based
Conditions: Staphylococcus aureus, strain EOE 57; 500 μg/mL
Entry flag: satisfied if zone of inhibition at 500 µg/mL reaches 20 mm; not satisfied if it does not.

| smiles_representation | classification |
| --- | --- |
| [C-]#[N+]C=Cc1cc(Br)ccc1O | satisfied |
| [C-]#[N+]C=Cc1ccc(O)cc1 | not satisfied |
| [C-]#[N+]/C=C/c1ccc(NC(C)=O)cc1/C=C/c1ccccc1 | satisfied |
| [C-]#[N+]/C=C/c1ccc(O)cc1/C=C/c1ccccc1 | satisfied |

====

System: various Staphylococcus aureus strains
Assay: Disc diffusion, Staphylococcus aureus strain study
Type: cell-based
Settings: Staphylococcus aureus, strain EOE 41; 500 μg/mL
endpoint_label: zone of inhibition at 500 µg/mL (mm)

| smiles_representation | result_value |
| --- | --- |
| [C-]#[N+]/C=C/c1ccc(NC(C)=O)cc1/C=C/c1ccccc1 | 26 |
| [C-]#[N+]C=Cc1ccc(O)c(Br)c1 | 20 |
| [C-]#[N+]/C=C/c1ccc(O)cc1/C=C/c1ccccc1 | 28 |
| [C-]#[N+]C=Cc1ccc(O)cc1 | 17 |
| [C-]#[N+]C=Cc1cc(Br)ccc1O | 20 |

====

Tested on: various Staphylococcus aureus strains
Experiment: Disc diffusion, Staphylococcus aureus strain study
Type: cell-based
Settings: Staphylococcus aureus, strain USFL 009; 500 μg/mL
Entry flag: Satisfied if zone of inhibition at 500 µg/mL reaches 20 mm; Not satisfied if it does not.

| molecule | classification |
| --- | --- |
| [C-]#[N+]C=Cc1cc(Br)ccc1O [Compound 13] | Satisfied |
| [C-]#[N+]C=Cc1ccc(O)cc1 [Compound 2, 4-(2-Isocyanovinyl)phenol] | Not satisfied |
| [C-]#[N+]C=Cc1ccc(O)c(Br)c1 [Compound 14] | Not satisfied |
| [C-]#[N+]/C=C/c1ccc(NC(C)=O)cc1/C=C/c1ccccc1 [Compound 41] | Satisfied |
| [C-]#[N+]/C=C/c1ccc(O)cc1/C=C/c1ccccc1 [Compound 36] | Satisfied |

====

Test system: various Staphylococcus aureus strains
Assay: Disc diffusion, Staphylococcus aureus strain study
Type: cell-based
Conditions: Staphylococcus aureus, strain Sa_TPS 3118; 500 μg/mL
endpoint_label: zone of inhibition at 500 µg/mL (mm)

| smiles_representation | target_under_test | endpoint_label | result_value |
| --- | --- | --- | --- |
| [C-]#[N+]/C=C/c1ccc(NC(C)=O)cc1/C=C/c1ccccc1 | various Staphylococcus aureus strains | zone of inhibition at 500 µg/mL | 32 |
| [C-]#[N+]C=Cc1ccc(O)cc1 | various Staphylococcus aureus strains | zone of inhibition at 500 µg/mL | 18 |
| [C-]#[N+]C=Cc1cc(Br)ccc1O | various Staphylococcus aureus strains | zone of inhibition at 500 µg/mL | 22 |
| [C-]#[N+]/C=C/c1ccc(O)cc1/C=C/c1ccccc1 | various Staphylococcus aureus strains | zone of inhibition at 500 µg/mL | 28 |
| [C-]#[N+]C=Cc1ccc(O)c(Br)c1 | various Staphylococcus aureus strains | zone of inhibition at 500 µg/mL | 18 |

====

Tested on: various Staphylococcus aureus strains
Assay: Disc diffusion, Staphylococcus aureus strain study
Assay type: cell-based
Conditions: Staphylococcus aureus, strain USFL 020; 500 μg/mL
Property: zone of inhibition at 500 µg/mL; scope: individual compounds

| compound | result_units | zone of inhibition at 500 µg/mL |
| --- | --- | --- |
| [C-]#[N+]C=Cc1ccc(O)cc1 [Compound 2, 4-(2-Isocyanovinyl)phenol] | mm | 14 |
| [C-]#[N+]C=Cc1ccc(O)c(Br)c1 [Compound 14] | mm | 16 |
| [C-]#[N+]/C=C/c1ccc(O)cc1/C=C/c1ccccc1 [Compound 36] | mm | 30 |
| [C-]#[N+]/C=C/c1ccc(NC(C)=O)cc1/C=C/c1ccccc1 [Compound 41] | mm | 28 |
| [C-]#[N+]C=Cc1cc(Br)ccc1O [Compound 13] | mm | 20 |
